- targetEntity: Cytochrome P450 2C19 (Homo sapiens)
- protocolText: Cytochrome P450 Family 2 Subfamily C Member 19 (CYP2C19) small molecule antagonists: luciferase reporter qHTS assay (AID 1671197); further: nearly all actives have a fitted effect of over 65% in size
- assaySetup: P450-Glo CYP2C19 enzyme, luciferin luminescence, 1 h; series mostly up to 52.9 µM
Records with an inconclusive call do not appear. The source made the active and inactive calls. The call rests on the fitted dose curve; in most records, active means well fitted inhibition curve with a large enough effect in the repeat runs; inconclusive means weak or mixed curves; inactive means no such curve, though single readings can be large or run the other way.
readoutName: outcome

* Oc1c(I)cc(I)c2cccnc12 | inactive
* COC(=O)[C@H]1[C@H]2C[C@@H]3c4[nH]c5cc(OC)ccc5c4CCN3C[C@H]2C[C@@H](OC(=O)/C=C/c2ccc(O)c(OC)c2)[C@@H]1OC | inactive
* COC(=O)c1nc(Cl)c(Cl)nc1N | inactive

----------
- protocolText: qHTS assay for identifying genotoxic compounds that show differential cytotoxicity against isogenic chicken DT40 cell lines with known DNA damage response pathways - Rev3 mutant cell line (AID 743014); further: nearly all actives have a fitted effect of over 55% in size
- assaySetup: chicken DT40 Rev3-/- viability, CellTiter-Glo, 40 h; series mostly up to 68.4 µM
Records with an inconclusive call do not appear. The source made the active and inactive calls. The call rests on the fitted dose curve; in most records, active means well fitted cell-killing curve with a large enough effect in the repeat runs; inconclusive means weak or mixed curves, or effect the other way; inactive means no such curve, though single readings can be large or run the other way.
Outcome codes: active, inactive

- CC(=O)N/N=C/c1ccc([N+](=O)[O-])o1: active
- CCCCN1CCCC1C(=O)Nc1c(C)cc(C)cc1C (configuration not stated): active
- CN(C)CCC=C1c2ccccc2C=Cc2ccccc21: active
- C=CC(C)(CCC=C(C)C)OC(=O)CC(C)C (configuration not stated): inactive
- CCOC(C)=O: inactive
- O=C(O)c1cccc(-c2noc(-c3ccccc3F)n2)c1: inactive
- CCCCC(CC)COP(=O)(O)O (configuration not stated): inactive
- O=C1NCCN1CCO: inactive
- C=C/C(C)=C/C/C=C(\C)CCC=C(C)C: active
- C[C@@H]1CC(=O)NN=C1c1ccc(NN=C(C#N)C#N)cc1: active
- CC1CC(OC(=O)C(O)c2ccccc2)CC(C)(C)N1C (configuration not stated): inactive
- CC(C)(O)c1ccc(CNC(=O)c2cccnc2Oc2ccc3nonc3c2)cc1: active
- COc1ccccc1N1CCN(CC(O)COc2cccc3ccccc23)CC1 (configuration not stated): active
- CCCCCCCCCCCCCCN(CCO)CCO: active
- CC(C)Nc1cccnc1N1CCN(C(=O)c2cc3cc(NS(C)(=O)=O)ccc3[nH]2)CC1: inactive
- C=C1c2cccc(O)c2C(O)=C2C(=O)[C@]3(O)C(O)=C(C(N)=O)C(=O)[C@@H](N(C)C)[C@@H]3[C@@H](O)[C@H]12: inactive
- Cc1ccccc1N=C(N)Nc1ccccc1C: active
- CC=C(Cl)Cl: inactive
- CN(C)CCN1C(=O)c2ccccc2N(C)c2ccccc21: inactive
- O=C(OCC(O)CO)c1ccccc1Nc1ccnc2cc(Cl)ccc12 (configuration not stated): inactive
- O=c1[nH]c2ccc(Cl)cc2o1: inactive
- CC(=O)OCCN(CCOC(C)=O)c1ccc(N=Nc2ccc([N+](=O)[O-])cc2C#N)cc1: active
- COc1ccccc1Oc1c(NS(=O)(=O)c2ccc(C(C)(C)C)cc2)nc(-c2ncccn2)nc1OCCO: inactive
- CC(C)COCC(CN(Cc1ccccc1)c1ccccc1)N1CCCC1 (configuration not stated): active
- O=c1cc(-c2ccccc2)oc2cc(O)cc(O)c12: active
- CCOc1ccc(Cc2nccc3cc(OCC)c(OCC)cc23)cc1OCC: active
- CCC(C)(C)OC: inactive

----------
- protocolText: qHTS RealTime-Glo MT Cell Viability Assay in HepG2 cells - 40 hour (AID 1224870); further: nearly all actives have a fitted effect of over 50% in size
- assaySetup: RealTime-Glo luminescence; series mostly up to 76.8 µM
Records with an inconclusive call do not appear. Calls of active or inactive are those of the source. The call rests on the fitted dose curve; in most records, active means well fitted cell-killing curve with a large enough effect in the repeat runs; inconclusive means weak or mixed curves, or effect the other way; inactive means flat fitted curve, though single readings scatter.
Classes used: active, inactive

• CCN(CC)CCNC(=O)COc1ccc(OC)cc1 = inactive
• CS(=O)(=O)c1ccc(-c2cn3ccccc3n2)cc1 = inactive
• CCCCCCCCN = inactive
• CC(=O)OCC[N+](C)(C)C = inactive
• Cc1cc(O)c(C)c(C)c1O = inactive
• C=CC(C)(CCC=C(C)C)OC(=O)CC(C)C (centres undefined) = inactive
• CC(C)=CCC/C(C)=C/CC/C(C)=C/CCC(=O)OC/C=C(\C)CCC=C(C)C = inactive
• Nc1ncnc2c1ncn2[C@H]1CC[C@@H](CO)O1 = inactive
• CN1C(=O)c2ccccc2C1=O = inactive
• CCCCCCCC/C=C\CCCCCCCCCCCC(=O)O = inactive
• CCCCN1CCCC1C(=O)Nc1c(C)cc(C)cc1C (centres undefined) = inactive
• Cc1cc(C)cc(N)c1 = inactive
• Nc1cccc2c1CN(C1CCC(=O)NC1=O)C2=O (centres undefined) = inactive
• O=C(O)CCC(=O)C(=O)O = inactive
• C[C@@]12CCC[C@H]1[C@@H]1CC[C@H]3C[C@@H](O)CC[C@]3(C)[C@H]1CC2 = inactive
• N#CCc1ccc(Cl)cc1Cl = inactive
• O=C(/C=C/c1ccc(O)c(O)c1)O[C@@H]1C[C@@](OC(=O)/C=C/c2ccc(O)c(O)c2)(C(=O)O)C[C@@H](O)[C@@H]1O = inactive
• CC(=O)OCCN(CCOC(C)=O)c1ccc(N=Nc2ccc([N+](=O)[O-])cc2C#N)cc1 = inactive
• CN1CCCC(CC2c3ccccc3Sc3ccccc32)C1 (centres undefined) = active

----------
- targetEntity: Nuclear receptor subfamily 1 group I member 3 (Homo sapiens) (UniProt Q14994)
- Sequence (Q14994 whole entry, looked up): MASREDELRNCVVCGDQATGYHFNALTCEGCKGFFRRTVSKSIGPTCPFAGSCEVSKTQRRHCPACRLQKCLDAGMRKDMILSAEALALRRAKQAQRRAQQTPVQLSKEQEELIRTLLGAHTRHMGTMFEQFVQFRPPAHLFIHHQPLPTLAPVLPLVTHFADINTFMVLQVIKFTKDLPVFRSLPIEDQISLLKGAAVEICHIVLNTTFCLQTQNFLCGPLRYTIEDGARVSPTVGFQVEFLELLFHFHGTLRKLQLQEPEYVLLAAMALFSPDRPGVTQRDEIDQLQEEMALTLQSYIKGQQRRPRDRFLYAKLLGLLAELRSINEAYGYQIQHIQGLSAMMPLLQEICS
- protocolText: qHTS assay to identify small molecule antagonists of the constitutive androstane receptor (CAR) signaling pathway (AID 1224838);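 further: HepG2 cells stably expressing hCAR with CYP2B6 luciferase reporter stimulated by CITCO; nearly all actives have a fitted effect of over 40% in size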
- assaySetup: HepG2-CYP2B6-hCAR luciferase, CITCO-stimulated, 24 h; series mostly up to 92.4 µM
Inconclusive results are not listed. The source made the active and inactive calls. Calls follow the shape of the dose curve; as a rule, active = well fitted inhibition curve with a large enough effect in the repeat runs; inconclusive = weak or mixed curves, or effect the other way; inactive = no such curve, though single readings can be large or run the other way.
Possible outcomes: active, inactive

- Cc1cc(C)cc(N)c1: inactive
- Cc1[nH]cnc1CN1CCc2c(c3ccccc3n2C)C1=O: inactive
- CC1=C(Br)C(=O)C(Br)=C/C1=C(/c1ccccc1S(=O)(=O)O)c1cc(Br)c(O)c(Br)c1C: active

----------
- protocolText: qHTS assay for identifying genotoxic compounds that show differential cytotoxicity against isogenic chicken DT40 cell lines with known DNA damage response pathways - wild type cell line (AID 743012); further: nearly all actives have a fitted effect of over 60% in size
- assaySetup: DT40 wild type chicken cells viability, CellTiter-Glo, 40 h; series mostly up to 68.4 µM
Records with an inconclusive call do not appear. Calls of active or inactive are those of the source. Calls follow the shape of the dose curve; as a rule, active = well fitted cell-killing curve with a large enough effect in the repeat runs; inconclusive = weak or mixed curves, or effect the other way; inactive = no such curve, though single readings can be large or run the other way.
Labels: True for active, False for inactive

- CCC(C)(C)OC: False
- C/C=C\C/C=C/CCCCCCCCOC(C)=O: True
- CC(C)(c1ccccc1)c1ccccc1: False
- C[C@@H]1CN(CCCn2c3ccccc3c3ccccc32)C[C@H](C)N1: True
- O=C1CCCCCCCCCCOCCCCO1: False
- CCCCCCCCOc1ccc(C(=O)O)cc1: False
- Cc1cscn1: False
- CC1(C)[C@@H](OC(=O)CCC(=O)O)CC[C@]2(C)[C@H]3C(=O)C=C4[C@@H]5C[C@@](C)(C(=O)O)CC[C@]5(C)CC[C@@]4(C)[C@]3(C)CC[C@@H]12: False
- CCCCCCCCC(CCCCCC)C(=O)O (centres undefined): False
- C/C=C(/C(=C/C)c1ccc(O)cc1)c1ccc(O)cc1: False
- C=C(C)[C@@H]1CCC2=CCC[C@@H](C)[C@]2(C)C1: True
- Cc1ccc(OC(=O)c2ccccc2O)cc1: False
- CC1(CN2CCC(n3c(=O)[nH]c4ccccc43)CC2)OCc2ccccc2-n2cccc21 (centres undefined): True
- C=CC(C)(CCC=C(C)C)OC(=O)CC(C)C (centres undefined): False

----------
- protocolText: qHTS assay for small molecules that induce genotoxicity in human embryonic kidney cells expressing luciferase-tagged ATAD5 (AID 651632); further: nearly all actives have a fitted effect of over 15% in size
- assaySetup: HEK293T ATAD5-luciferase induction, 16 h; series mostly up to 83.3 µM
Records with an inconclusive call do not appear. Activity calls are given as the source filed them. The call rests on the fitted dose curve; in most records, active means well fitted activation curve with a large enough effect in the repeat runs; inconclusive means weak or mixed curves; inactive means no such curve, though single readings can be large or run the other way.
Classes used: active, inactive

- CN1CC(=O)N2[C@H](c3ccc4c(c3)OCO4)c3[nH]c4ccccc4c3C[C@@H]2C1=O: inactive
- CN(C)CCC=C1c2ccccc2C=Cc2ccccc21: inactive
- Oc1ccc(Cl)c2cccnc12: inactive
- O=C(CCCN1CC=C(n2c(=O)[nH]c3ccccc32)CC1)c1ccc(F)cc1: inactive
- C[C@]1(Cn2ccnn2)[C@H](C(=O)O)N2C(=O)C[C@H]2S1(=O)=O: inactive
- CN1C(=O)OC(C)(C)C1=O: inactive
- CC(CO)CO: inactive
- CC1(CN2CCC(n3c(=O)[nH]c4ccccc43)CC2)OCc2ccccc2-n2cccc21 (centres undefined): inactive
- c1cc(N(CC2CO2)CC2CO2)ccc1Cc1ccc(N(CC2CO2)CC2CO2)cc1 (centres undefined): active
- CCCCCCCCCCCCCCN(CCO)CCO: inactive
- CC[N+](CC)(CCNC(=O)C(=O)NCC[N+](CC)(CC)Cc1ccccc1Cl)Cc1ccccc1Cl: inactive
- N#CCc1ccc(Cl)cc1Cl: inactive
- Cc1ccco1: inactive
- C=CC(C)(CCC=C(C)C)OC(=O)CC(C)C (centres undefined): inactive
- O=C(OCC(O)CO)c1ccccc1Nc1ccnc2cc(Cl)ccc12 (centres undefined): inactive
- Cc1cc(C)c(N)cc1C: inactive
- c1ccc2c(c1)CCc1ccccc1N2: inactive
- C=Cc1ccc(S(=O)(=O)O)cc1: inactive
- Nc1nc2ccc([N+](=O)[O-])cc2s1: inactive
- C=C1CCC2CC1C2(C)C (centres undefined): inactive
- CCCC(=O)C(=O)O: inactive
- O=C(Cn1ccnc1[N+](=O)[O-])NCCO: inactive
- C/C=C(/C(=C/C)c1ccc(O)cc1)c1ccc(O)cc1: inactive
- O=Cc1c2ccccc2c(Cl)c2ccccc12: inactive
- COc1cc(Nc2c(C#N)cnc3cc(OCCCN4CCN(C)CC4)c(OC)cc23)c(Cl)cc1Cl: inactive
- CC1=Nc2ccc3ccccc3c2C1(C)C: inactive
- FC(F)(F)c1ccccc1Cl: inactive
- COc1cc(C(=O)NC2CCN(C)CC2)ccc1Nc1ncc2c(n1)N(C1CCCC1)CC(F)(F)C(=O)N2C: active
- CCN(CC)CCNC(=O)COc1ccc(OC)cc1: inactive
